target: HIV Env of isolate 89-F1_2_25 (clade CD) (HIV); test: cell-based or functional assay
MEASURED_PARAMETER: IC50 (µg/ml) with constrains

[ask] Assign IC50 (µg/ml) with constrains to the following record: ePGDM9 (antibody, V domains shown) VH: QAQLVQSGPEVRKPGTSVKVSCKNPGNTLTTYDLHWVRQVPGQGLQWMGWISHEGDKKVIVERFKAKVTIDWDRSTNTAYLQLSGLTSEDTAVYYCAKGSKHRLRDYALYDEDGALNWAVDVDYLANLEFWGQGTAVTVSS VL: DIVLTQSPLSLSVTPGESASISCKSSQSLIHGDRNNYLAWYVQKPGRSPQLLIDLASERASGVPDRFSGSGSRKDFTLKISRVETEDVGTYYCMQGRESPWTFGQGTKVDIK
[reply] 0.001 µg/mL
